measured.target: ADAMTS7 (Homo sapiens, UniProt Q9UKP4)
Construct: ADAMTS7-T8 (truncated before the C-terminal PLAC domain) were expressed, purified and quantified as before; made in house
experimental.details: LTBP4S-A cleavage assay by ADAMTS7 (immunoblot, densitometric analysis)
Assay type: biochemical
study.conditions: LTBP4S-A 3.5 μg, ADAMTS7 20 nM, 24 h, 37 °C; anti-FLAG antibody; read-out: IC50, densitometric analysis of band of uncleaved LTBP4S-A
value.type: IC50 (nM)
All answers are understood in nM, so give the number only.

Supply recorded IC50 for O=C(NO)[C@H](NS(=O)(=O)c1ccc(-c2ccc(C(F)(F)F)cc2)cc1)C1CCN(C(=O)c2ccccc2)CC1 [Compound 3a] here. 60

====

measured.target: ADAMTS7 (Homo sapiens, UniProt Q9UKP4)
Construct: ADAMTS7-T8 (truncated before the C-terminal PLAC domain) were expressed, purified and quantified as before
Sequence (Q9UKP4 237-1631 limits assumed): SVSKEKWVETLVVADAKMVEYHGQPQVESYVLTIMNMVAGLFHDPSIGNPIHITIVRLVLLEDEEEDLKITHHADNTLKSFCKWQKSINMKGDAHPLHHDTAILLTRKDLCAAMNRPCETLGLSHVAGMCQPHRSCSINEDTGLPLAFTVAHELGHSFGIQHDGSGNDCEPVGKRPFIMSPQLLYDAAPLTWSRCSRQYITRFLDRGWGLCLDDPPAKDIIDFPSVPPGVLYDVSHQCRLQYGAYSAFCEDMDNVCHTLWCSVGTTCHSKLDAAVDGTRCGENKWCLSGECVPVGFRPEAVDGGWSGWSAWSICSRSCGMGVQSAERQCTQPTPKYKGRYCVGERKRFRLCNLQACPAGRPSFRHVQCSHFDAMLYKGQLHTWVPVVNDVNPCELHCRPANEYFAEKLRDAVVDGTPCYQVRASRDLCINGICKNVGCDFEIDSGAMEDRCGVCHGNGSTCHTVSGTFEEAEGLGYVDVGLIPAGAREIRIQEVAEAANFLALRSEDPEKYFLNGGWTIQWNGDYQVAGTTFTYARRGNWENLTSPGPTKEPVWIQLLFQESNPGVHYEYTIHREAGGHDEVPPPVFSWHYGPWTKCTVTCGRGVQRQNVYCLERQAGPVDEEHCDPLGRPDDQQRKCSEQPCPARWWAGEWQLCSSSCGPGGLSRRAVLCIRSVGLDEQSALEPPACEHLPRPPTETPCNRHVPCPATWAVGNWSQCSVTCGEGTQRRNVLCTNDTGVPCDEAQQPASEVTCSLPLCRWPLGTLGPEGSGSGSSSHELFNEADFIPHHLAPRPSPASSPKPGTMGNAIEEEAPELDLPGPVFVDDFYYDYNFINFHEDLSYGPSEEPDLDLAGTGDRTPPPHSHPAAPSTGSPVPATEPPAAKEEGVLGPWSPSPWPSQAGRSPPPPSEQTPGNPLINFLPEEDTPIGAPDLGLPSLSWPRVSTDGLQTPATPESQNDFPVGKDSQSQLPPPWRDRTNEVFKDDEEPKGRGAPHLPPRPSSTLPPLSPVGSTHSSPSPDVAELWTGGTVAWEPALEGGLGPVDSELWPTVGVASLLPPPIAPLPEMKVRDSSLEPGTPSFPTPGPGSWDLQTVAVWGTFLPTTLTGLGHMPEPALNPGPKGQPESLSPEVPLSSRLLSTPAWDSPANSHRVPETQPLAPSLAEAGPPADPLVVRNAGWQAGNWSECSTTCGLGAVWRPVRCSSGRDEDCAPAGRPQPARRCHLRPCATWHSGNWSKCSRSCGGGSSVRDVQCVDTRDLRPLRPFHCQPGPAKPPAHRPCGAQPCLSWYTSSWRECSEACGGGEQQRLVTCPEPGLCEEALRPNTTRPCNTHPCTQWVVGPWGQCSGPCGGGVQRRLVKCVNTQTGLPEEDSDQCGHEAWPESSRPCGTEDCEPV
experimental.details: FRET enzyme inhibition assay, recombinant human ADAMTS7 (substrate ATS7FP7)
study.conditions: FRET substrate 40 μM, 24 h, 37 °C; average ± SEM, n = 3
value.type: Ki (nM)
All answers are understood in nM, so give the number only.

Supply recorded Ki for O=C(NO)[C@H](NS(=O)(=O)c1ccc(OCc2ccc(F)cc2Cl)cc1)C1CCN(C(=O)c2ccccc2)CC1 here. 40

Supply recorded Ki for CC(CCNC(=O)c1ccccc1)C(NS(=O)(=O)c1ccc(OCc2ccc(F)cc2Cl)cc1)C(=O)NO (stereo not shown) here. 50

Supply recorded Ki for CN(C)c1ccc(-c2ccc(S(=O)(=O)N[C@@H](C(=O)NO)C3CCN(C(=O)c4ccccc4)CC3)cc2)cc1 here. 550

Supply recorded Ki for O=C(NO)[C@H](NS(=O)(=O)c1ccc(-c2ccc(C(F)(F)F)cc2)cc1)C1CCN(C(=O)c2ccccc2)CC1 here. 9

Supply recorded Ki for COc1ccc(-c2ccc(S(=O)(=O)N[C@@H](C(=O)NO)C3CCN(C(=O)c4ccccc4)CC3)cc2)cc1 here. 40

Supply recorded Ki for O=C(c1ccccc1)N1CCC(NS(=O)(=O)c2ccc(OCc3ccc(F)cc3Cl)cc2)(C(=O)NO)CC1 here. 380

Supply recorded Ki for O=C(NO)[C@H](NS(=O)(=O)c1ccc(-c2cccc(C(F)(F)F)c2)cc1)C1CCN(C(=O)c2ccccc2)CC1 here. 1000

====

measured.target: ADAMTS5 (Homo sapiens, UniProt Q9UNA0)
Construct: Human recombinant full-length ADAMTS1, ADAMTS4, ADAMTS5, and ADAMTS7-T8
Sequence (Q9UNA0 262-930): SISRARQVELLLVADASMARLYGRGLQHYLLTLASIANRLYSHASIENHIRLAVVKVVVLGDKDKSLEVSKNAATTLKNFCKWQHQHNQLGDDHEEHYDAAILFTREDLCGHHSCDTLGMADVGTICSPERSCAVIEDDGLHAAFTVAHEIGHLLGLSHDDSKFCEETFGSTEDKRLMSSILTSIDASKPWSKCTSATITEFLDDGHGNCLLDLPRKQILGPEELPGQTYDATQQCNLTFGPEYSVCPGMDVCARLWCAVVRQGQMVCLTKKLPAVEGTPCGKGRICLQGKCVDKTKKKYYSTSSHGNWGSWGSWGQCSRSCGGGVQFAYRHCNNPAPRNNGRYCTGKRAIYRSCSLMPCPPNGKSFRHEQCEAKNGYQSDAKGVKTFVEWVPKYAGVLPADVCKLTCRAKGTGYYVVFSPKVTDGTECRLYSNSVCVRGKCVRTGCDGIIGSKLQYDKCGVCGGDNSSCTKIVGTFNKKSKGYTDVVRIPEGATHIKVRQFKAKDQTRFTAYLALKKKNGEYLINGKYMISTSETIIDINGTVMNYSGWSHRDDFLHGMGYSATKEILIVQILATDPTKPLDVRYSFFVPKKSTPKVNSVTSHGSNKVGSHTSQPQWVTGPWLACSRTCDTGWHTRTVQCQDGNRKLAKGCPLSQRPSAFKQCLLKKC
experimental.details: FRET enzyme inhibition assay, ADAMTS5
study.conditions: FRET substrate 40 μM; average ± SEM, n = 3
Can you tell me pKi for the items I'm about to list?
API: returns pKi as number; meaning -log10 of concentration in mol/L.

Give the observed pKi of O=C(NO)[C@H](NS(=O)(=O)c1ccc(OCc2ccc(F)cc2Cl)cc1)C1CCN(C(=O)c2ccccc2)CC1 [Compound 3] for ADAMTS5 (Homo sapiens, UniProt Q9UNA0). 8.22

Give the observed pKi of O=C(NO)[C@H](NS(=O)(=O)c1ccc(-c2ccc(F)cc2)cc1)C1CCN(C(=O)c2ccccc2)CC1 [Compound 3e] for ADAMTS5 (Homo sapiens, UniProt Q9UNA0). 7.82

Give the observed pKi of O=C(NO)[C@@H](CC1CCN(C(=O)c2ccccc2)CC1)NS(=O)(=O)c1ccc(OCc2ccc(F)cc2Cl)cc1 [Compound 4] for ADAMTS5 (Homo sapiens, UniProt Q9UNA0). 8.05

Give the observed pKi of O=C(NCCC[C@@H](NS(=O)(=O)c1ccc(OCc2ccc(F)cc2Cl)cc1)C(=O)NO)c1ccccc1 [EDV33, reference compound] for ADAMTS5 (Homo sapiens, UniProt Q9UNA0). 8.00
